- Target Desc: GRIP2_3, Q9C0E4
- Sequence (Q9C0E4 238-339): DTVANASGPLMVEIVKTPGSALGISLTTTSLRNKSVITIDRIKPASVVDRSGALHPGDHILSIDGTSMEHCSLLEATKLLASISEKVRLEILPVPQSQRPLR
- Protocol Description: holdup assay
- Parameters: key: below the threshold = too weak to quantify, mostly under pKd 3.1 to 4
- Details: plain residues with an end cap or a label only (N-terminal biotin on a linker: ahx)
Property Measured: pKd

// below: answered binders
Binder	pKd
TEAKLTETNA [MYO18A, Q92614]	below the threshold
APSRKLNTEI [TIAM1, Q13009]	below the threshold
TQKFRASTAL [FRMPD1, Q5SYB0]	below the threshold
EKQAKGDTEF [CACYBP, Q9HB71]	below the threshold
QNTDDVQTSF [ACE2, Q9BYF1]	below the threshold

Please look up its pKd: HTHSYIETHV [CNKSR2, Q8WXI2]
below the threshold

Item: TESNLQTSSC [CGN, Q9P2M7]
below the threshold

Okay, and QDEKVKESYV [ABCA1, O95477] ?
below the threshold

Would you kindly repeat that for QPRTWLQSPV [RTKN, Q9BST9] ?
below the threshold
